experimental-parameters: in ethanol, 288.15 K
metric: solubility (mole fraction)

> print(dat)
                                   compound                      metric  experimental.value
1  Clc1ccc(COC(Cn2ccnc2)c2ccc(Cl)cc2Cl)cc1.O=[N+]([O-])O (stereo unspecified)  solubility (mole fraction)            0.000832

###

experimental-parameters: in ethanol, 293.15 K
metric: solubility (mole fraction)

> print(dat)
                                   compound  experimental.value
1  Clc1ccc(COC(Cn2ccnc2)c2ccc(Cl)cc2Cl)cc1.O=[N+]([O-])O (stereo unspecified)             0.00102
